System: MOLT-4
ASSAY_PROCEDURE: NCI-60 one-dose SRB screen (Leukemia)
Type: cell-based
STATED_CONDITIONS: Homo sapiens, single dose 10 µM, 48 h, read-out: Growth inhibition percent (GI %)
ASSAY_ENDPOINT: inhibition at 10 µM (%)
Use % as the unit, but write only the number.

Query block: Can you share its inhibition at 10 µM? I mean this compound: `CCOC(=O)c1ccc(NC(=O)COC(=O)c2cn(-c3ccc(S(N)(=O)=O)cc3)nc2-c2ccc(Br)cc2)cc1`
Result block: 94

Query block: Next: `CCOC(=O)c1ccc(NC(=O)COC(=O)c2cn(-c3ccc(S(N)(=O)=O)cc3)nc2-c2ccc(C)cc2)cc1`
Result block: 83.8

---

I'd be grateful if you could share measured inhibition at 10 µM for these entries.
Test system: CAKI-1
ASSAY_PROCEDURE: NCI-60 one-dose SRB screen (Renal Cancer)
Type: cell-based
STATED_CONDITIONS: Homo sapiens, single dose 10 µM, 48 h, read-out: Growth inhibition percent (GI %)
Your answer is read as %, so omit the unit and give the number.

Query block: Please look up its inhibition at 10 µM: CCOC(=O)c1ccc(NC(=O)COC(=O)c2cn(-c3ccc(S(N)(=O)=O)cc3)nc2-c2ccc(S(C)(=O)=O)cc2)cc1 [Compound 5e]
Result block: 30.8

Query block: Note, next up: Cc1ccc(-c2nn(-c3ccc(S(N)(=O)=O)cc3)cc2C(=O)OCC(=O)Nc2ccc(S(N)(=O)=O)cc2)cc1 [Compound 4b]
Result block: 15.2

Query block: Can you check COc1ccc(-c2nn(-c3ccc(S(N)(=O)=O)cc3)cc2C(=O)OCC(=O)Nc2nnc(S(N)(=O)=O)s2)cc1 [Compound 6c] next?
Result block: 21.5

Query block: Also Cc1ccc(-c2nn(-c3ccc(S(N)(=O)=O)cc3)cc2-c2n[nH]c(=S)[nH]2)cc1 [Compound 11] ?
Result block: 11.4

Query block: And the next one, COc1ccc(-c2nn(-c3ccc(S(N)(=O)=O)cc3)cc2C(=O)OCC(=O)Nc2ccc(S(N)(=O)=O)cc2)cc1 [Compound 4c] ?
Result block: 8.36

---

Test system: MOLT-4
ASSAY_PROCEDURE: NCI-60 one-dose SRB screen (Leukemia)
Format: cell-based
STATED_CONDITIONS: Homo sapiens, single dose 10 µM, 48 h, read-out: Growth inhibition percent (GI %)
ASSAY_ENDPOINT: inhibition at 10 µM

Query block: Please give the measured inhibition at 10 µM for this compound: `NS(=O)(=O)c1ccc(-n2cc(C(=O)OCC(=O)Nc3nnc(S(N)(=O)=O)s3)c(-c3ccccc3)n2)cc1`
Result block: < 5%

Query block: // repeat for `COc1ccc(-c2nn(-c3ccc(S(N)(=O)=O)cc3)cc2C(=O)NNC(N)=S)cc1` and report
Result block: < 5%

Query block: And the next one, `CS(=O)(=O)c1ccc(-c2nn(-c3ccc(S(N)(=O)=O)cc3)cc2C(=O)OCC(=O)Nc2ccc(S(N)(=O)=O)cc2)cc1` ?
Result block: < 5%

Query block: Can you check `CCOC(=O)c1ccc(NC(=O)COC(=O)c2cn(-c3ccc(S(N)(=O)=O)cc3)nc2-c2ccccc2)cc1` next?
Result block: 89%

Query block: Another: `NC(=S)NNC(=O)c1cn(-c2ccc(S(N)(=O)=O)cc2)nc1-c1ccccc1`
Result block: < 5%

Query block: Follow-up entry: `Cc1ccc(-c2nn(-c3ccc(S(N)(=O)=O)cc3)cc2-c2n[nH]c(=S)[nH]2)cc1`
Result block: 21.1%

Query block: Also, `COc1ccc(-c2nn(-c3ccc(S(N)(=O)=O)cc3)cc2C(=O)OCC(=O)Nc2ccc(S(N)(=O)=O)cc2)cc1` please.
Result block: < 5%

Query block: Here is the next compound: `CCOC(=O)c1ccc(NC(=O)COC(=O)c2cn(-c3ccc(S(N)(=O)=O)cc3)nc2-c2ccc(OC)cc2)cc1`
Result block: 65.9%

Query block: Repeat with `Cc1ccc(-c2nn(-c3ccc(S(N)(=O)=O)cc3)cc2C(=O)OCC(=O)Nc2nnc(S(N)(=O)=O)s2)cc1`
Result block: 7.13%

Query block: Thanks! And `CS(=O)(=O)c1ccc(-c2nn(-c3ccc(S(N)(=O)=O)cc3)cc2C(=O)NNC(N)=S)cc1` ?
Result block: < 5%

Query block: What about `NC(=S)NNC(=O)c1cn(-c2ccc(S(N)(=O)=O)cc2)nc1-c1ccc(Br)cc1` ?
Result block: < 5%

Query block: And `Cc1ccc(-c2nn(-c3ccc(S(N)(=O)=O)cc3)cc2-c2nnc(N)s2)cc1` ?
Result block: < 5%

Query block: `COc1ccc(-c2nn(-c3ccc(S(N)(=O)=O)cc3)cc2C(=O)OCC(=O)Nc2nnc(S(N)(=O)=O)s2)cc1` ?
Result block: < 5%

Query block: Consider next the compound `NS(=O)(=O)c1ccc(NC(=O)COC(=O)c2cn(-c3ccc(S(N)(=O)=O)cc3)nc2-c2ccc(Br)cc2)cc1` in the same way.
Result block: 60.1%

Query block: Similarly, `Cc1ccc(-c2nn(-c3ccc(S(N)(=O)=O)cc3)cc2C(=O)NNC(N)=S)cc1` ?
Result block: < 5%

---

Provide the recorded inhibition at 10 µM for the entries that follow.
Tested on: K-562
ASSAY_PROCEDURE: NCI-60 one-dose SRB screen (Leukemia)
Assay type: cell-based
STATED_CONDITIONS: Homo sapiens, K562, single dose 10 µM, 48 h, read-out: Growth inhibition percent (GI %)

Query block: Requested field: inhibition at 10 µM. Item: Cc1ccc(-c2nn(-c3ccc(S(N)(=O)=O)cc3)cc2C(=O)NNC(N)=S)cc1 [Compound 9b]
Result block: < 5%

Query block: Then what about the compound CS(=O)(=O)c1ccc(-c2nn(-c3ccc(S(N)(=O)=O)cc3)cc2C(=O)OCC(=O)Nc2ccc(S(N)(=O)=O)cc2)cc1 [Compound 4e] ?
Result block: < 5%

Query block: Query CCOC(=O)c1ccc(NC(=O)COC(=O)c2cn(-c3ccc(S(N)(=O)=O)cc3)nc2-c2ccc(OC)cc2)cc1 [Compound 5c] next
Result block: 61.7%

Query block: Same for COc1ccc(-c2nn(-c3ccc(S(N)(=O)=O)cc3)cc2C(=O)OCC(=O)Nc2nnc(S(N)(=O)=O)s2)cc1 [Compound 6c]
Result block: < 5%

Query block: Now the same for CCOC(=O)c1ccc(NC(=O)COC(=O)c2cn(-c3ccc(S(N)(=O)=O)cc3)nc2-c2ccc(C)cc2)cc1 [Compound 5b]
Result block: 74.5%

Query block: Okay, and COc1ccc(-c2nn(-c3ccc(S(N)(=O)=O)cc3)cc2C(=O)OCC(=O)Nc2ccc(S(N)(=O)=O)cc2)cc1 [Compound 4c] ?
Result block: 9.61%

Query block: NS(=O)(=O)c1ccc(NC(=O)COC(=O)c2cn(-c3ccc(S(N)(=O)=O)cc3)nc2-c2ccc(Br)cc2)cc1 [Compound 4d] , same question.
Result block: 82.5%

Query block: Ok, now CCOC(=O)c1ccc(NC(=O)COC(=O)c2cn(-c3ccc(S(N)(=O)=O)cc3)nc2-c2ccc(Br)cc2)cc1 [Compound 5d]
Result block: 80.4%

Query block: For CS(=O)(=O)c1ccc(-c2nn(-c3ccc(S(N)(=O)=O)cc3)cc2C(=O)NNC(N)=S)cc1 [Compound 9e] then?
Result block: < 5%

Query block: Same question for NS(=O)(=O)c1ccc(NC(=O)COC(=O)c2cn(-c3ccc(S(N)(=O)=O)cc3)nc2-c2ccccc2)cc1 [Compound 4a] please.
Result block: 16.7%

Query block: Similarly, NS(=O)(=O)c1ccc(-n2cc(C(=O)OCC(=O)Nc3nnc(S(N)(=O)=O)s3)c(-c3ccccc3)n2)cc1 [Compound 6a] ?
Result block: < 5%

Query block: Then what about the compound Cc1ccc(-c2nn(-c3ccc(S(N)(=O)=O)cc3)cc2C(=O)OCC(=O)Nc2nnc(S(N)(=O)=O)s2)cc1 [Compound 6b] ?
Result block: 16.7%

---

System: M14
ASSAY_PROCEDURE: NCI-60 one-dose SRB screen (Melanoma)
Format: cell-based
STATED_CONDITIONS: Homo sapiens, single dose 10 µM, 48 h, read-out: Growth inhibition percent (GI %)
ASSAY_ENDPOINT: inhibition at 10 µM

Query block: # input compound: `Cc1ccc(-c2nn(-c3ccc(S(N)(=O)=O)cc3)cc2C(=O)OCC(=O)Nc2ccc(S(N)(=O)=O)cc2)cc1` ; wanted: its inhibition at 10 µM
Result block: < 5%

Query block: Now try `NC(=S)NNC(=O)c1cn(-c2ccc(S(N)(=O)=O)cc2)nc1-c1ccc(Br)cc1` .
Result block: < 5%

Query block: Could you do the same for `Cc1ccc(-c2nn(-c3ccc(S(N)(=O)=O)cc3)cc2C(=O)OCC(=O)Nc2nnc(S(N)(=O)=O)s2)cc1` , please?
Result block: < 5%

Query block: For `CCOC(=O)c1ccc(NC(=O)COC(=O)c2cn(-c3ccc(S(N)(=O)=O)cc3)nc2-c2ccc(OC)cc2)cc1` then?
Result block: 40.3%

Query block: What do we get for `Cc1ccc(-c2nn(-c3ccc(S(N)(=O)=O)cc3)cc2-c2n[nH]c(=S)[nH]2)cc1` ?
Result block: < 5%

Query block: Lookup `Cc1ccc(-c2nn(-c3ccc(S(N)(=O)=O)cc3)cc2C(=O)NNC(N)=S)cc1`
Result block: < 5%
